Details: in DMSO, 298.15 K
MEASURE: solubility (mole fraction)
Give bare numbers.

Request: Specify measured solubility (mole fraction) for `Nc1nc(=O)[nH]cc1F` .
Result: 0.00754

====

Details: in n-butanol, 293.15 K
MEASURE: solubility (mole fraction)
One number for each entry.

Request: Specify measured solubility (mole fraction) for `Nc1nc(=O)[nH]cc1F` .
Result: 0.000399

====

Conditions: in DMF, 313.15 K
MEASURE: solubility (mole fraction)
One number for each entry.

Request: Specify measured solubility (mole fraction) for `Nc1nc(=O)[nH]cc1F` .
Result: 0.00252

====

Conditions: in 1,4-dioxane, 293.15 K
MEASURE: solubility (mole fraction)
Numbers only.

Request: Specify measured solubility (mole fraction) for `Nc1nc(=O)[nH]cc1F` .
Result: 1.92e-05

====

Conditions: in DMF, 283.15 K
MEASURE: solubility (mole fraction)
Answers are plain numbers.

Request: Specify measured solubility (mole fraction) for `Nc1nc(=O)[nH]cc1F` .
Result: 0.00113

====

Conditions: in 2-butanone, 318.15 K
MEASURE: solubility (mole fraction)
Answers are plain numbers.

Request: Specify measured solubility (mole fraction) for `Nc1nc(=O)[nH]cc1F` .
Result: 0.000223

====

Details: in DMSO, 308.15 K
MEASURE: solubility (mole fraction)
Answers are plain numbers.

Request: Specify measured solubility (mole fraction) for `Nc1nc(=O)[nH]cc1F` .
Result: 0.00932

====

Conditions: in 1,4-dioxane, 323.15 K
MEASURE: solubility (mole fraction)
Give bare numbers.

Request: Specify measured solubility (mole fraction) for `Nc1nc(=O)[nH]cc1F` .
Result: 6.07e-05

====

Conditions: in DMSO, 288.15 K
MEASURE: solubility (mole fraction)

Request: Specify measured solubility (mole fraction) for `Nc1nc(=O)[nH]cc1F` .
Result: 0.00611

====

Settings: in 1,4-dioxane, 283.15 K
MEASURE: solubility (mole fraction)
One number for each entry.

Request: Specify measured solubility (mole fraction) for `Nc1nc(=O)[nH]cc1F` .
Result: 1.13e-05

====

Conditions: in acetonitrile, 298.15 K
MEASURE: solubility (mole fraction)
Numbers only.

Request: Specify measured solubility (mole fraction) for `Nc1nc(=O)[nH]cc1F` .
Result: 1.77e-05

====

Details: in ethyl acetate, 323.15 K
MEASURE: solubility (mole fraction)
Answers are plain numbers.

Request: Specify measured solubility (mole fraction) for `Nc1nc(=O)[nH]cc1F` .
Result: 3.11e-05

====

Conditions: in acetonitrile, 313.15 K
MEASURE: solubility (mole fraction)
Numbers only.

Request: Specify measured solubility (mole fraction) for `Nc1nc(=O)[nH]cc1F` .
Result: 3.58e-05

====

Settings: in ethyl acetate, 288.15 K
MEASURE: solubility (mole fraction)
Give bare numbers.

Request: Specify measured solubility (mole fraction) for `Nc1nc(=O)[nH]cc1F` .
Result: 4.5e-06

====

Conditions: in DMF, 293.15 K
MEASURE: solubility (mole fraction)
One number for each entry.

Request: Specify measured solubility (mole fraction) for `Nc1nc(=O)[nH]cc1F` .
Result: 0.00146

====

Settings: in 2-butanone, 288.15 K
MEASURE: solubility (mole fraction)

Request: Specify measured solubility (mole fraction) for `Nc1nc(=O)[nH]cc1F` .
Result: 5.91e-05

====

Conditions: in 1,4-dioxane, 318.15 K
MEASURE: solubility (mole fraction)
Give bare numbers.

Request: Specify measured solubility (mole fraction) for `Nc1nc(=O)[nH]cc1F` .
Result: 5.08e-05

====

Details: in isopropanol, 303.15 K
MEASURE: solubility (mole fraction)
One number for each entry.

Request: Specify measured solubility (mole fraction) for `Nc1nc(=O)[nH]cc1F` .
Result: 0.000382

====

Conditions: in n-propanol, 283.15 K
MEASURE: solubility (mole fraction)

Request: Specify measured solubility (mole fraction) for `Nc1nc(=O)[nH]cc1F` .
Result: 0.000222

====

Conditions: in acetonitrile, 283.15 K
MEASURE: solubility (mole fraction)
One number for each entry.

Request: Specify measured solubility (mole fraction) for `Nc1nc(=O)[nH]cc1F` .
Result: 7e-06

====

Settings: in DMSO, 303.15 K
MEASURE: solubility (mole fraction)
Numbers only.

Request: Specify measured solubility (mole fraction) for `Nc1nc(=O)[nH]cc1F` .
Result: 0.00838

====

Conditions: in DMSO, 283.15 K
MEASURE: solubility (mole fraction)
Numbers only.

Request: Specify measured solubility (mole fraction) for `Nc1nc(=O)[nH]cc1F` .
Result: 0.00559

====

Settings: in acetonitrile, 303.15 K
MEASURE: solubility (mole fraction)
Give bare numbers.

Request: Specify measured solubility (mole fraction) for `Nc1nc(=O)[nH]cc1F` .
Result: 2.23e-05

====

Details: in 2-butanone, 283.15 K
MEASURE: solubility (mole fraction)
Answers are plain numbers.

Request: Specify measured solubility (mole fraction) for `Nc1nc(=O)[nH]cc1F` .
Result: 4.37e-05

====

Conditions: in 2-butanone, 323.15 K
MEASURE: solubility (mole fraction)
Answers are plain numbers.

Request: Specify measured solubility (mole fraction) for `Nc1nc(=O)[nH]cc1F` .
Result: 0.000271

====

Settings: in 1,4-dioxane, 288.15 K
MEASURE: solubility (mole fraction)
Numbers only.

Request: Specify measured solubility (mole fraction) for `Nc1nc(=O)[nH]cc1F` .
Result: 1.51e-05

====

Settings: in isopropanol, 288.15 K
MEASURE: solubility (mole fraction)
Answers are plain numbers.

Request: Specify measured solubility (mole fraction) for `Nc1nc(=O)[nH]cc1F` .
Result: 0.000204

====

Conditions: in 2-butanone, 298.15 K
MEASURE: solubility (mole fraction)

Request: Specify measured solubility (mole fraction) for `Nc1nc(=O)[nH]cc1F` .
Result: 9.76e-05

====

Details: in n-butanol, 303.15 K
MEASURE: solubility (mole fraction)
Give bare numbers.

Request: Specify measured solubility (mole fraction) for `Nc1nc(=O)[nH]cc1F` .
Result: 0.000567

====

Settings: in n-propanol, 288.15 K
MEASURE: solubility (mole fraction)
One number for each entry.

Request: Specify measured solubility (mole fraction) for `Nc1nc(=O)[nH]cc1F` .
Result: 0.000272

====

Settings: in DMF, 303.15 K
MEASURE: solubility (mole fraction)
Give bare numbers.

Request: Specify measured solubility (mole fraction) for `Nc1nc(=O)[nH]cc1F` .
Result: 0.00193

====

Conditions: in 2-butanone, 308.15 K
MEASURE: solubility (mole fraction)

Request: Specify measured solubility (mole fraction) for `Nc1nc(=O)[nH]cc1F` .
Result: 0.000149

====

Details: in 1,4-dioxane, 313.15 K
MEASURE: solubility (mole fraction)
Numbers only.

Request: Specify measured solubility (mole fraction) for `Nc1nc(=O)[nH]cc1F` .
Result: 4.17e-05

====

Conditions: in 1,4-dioxane, 308.15 K
MEASURE: solubility (mole fraction)
Answers are plain numbers.

Request: Specify measured solubility (mole fraction) for `Nc1nc(=O)[nH]cc1F` .
Result: 3.43e-05

====

Conditions: in n-propanol, 293.15 K
MEASURE: solubility (mole fraction)

Request: Specify measured solubility (mole fraction) for `Nc1nc(=O)[nH]cc1F` .
Result: 0.000334

====

Conditions: in n-butanol, 283.15 K
MEASURE: solubility (mole fraction)
Give bare numbers.

Request: Specify measured solubility (mole fraction) for `Nc1nc(=O)[nH]cc1F` .
Result: 0.000282

====

Details: in ethyl acetate, 318.15 K
MEASURE: solubility (mole fraction)
One number for each entry.

Request: Specify measured solubility (mole fraction) for `Nc1nc(=O)[nH]cc1F` .
Result: 2.45e-05

====

Settings: in acetonitrile, 318.15 K
MEASURE: solubility (mole fraction)
Answers are plain numbers.

Request: Specify measured solubility (mole fraction) for `Nc1nc(=O)[nH]cc1F` .
Result: 4.5e-05

====

Settings: in isopropanol, 293.15 K
MEASURE: solubility (mole fraction)
Numbers only.

Request: Specify measured solubility (mole fraction) for `Nc1nc(=O)[nH]cc1F` .
Result: 0.000253

====

Conditions: in acetone, 308.15 K
MEASURE: solubility (mole fraction)
Give bare numbers.

Request: Specify measured solubility (mole fraction) for `Nc1nc(=O)[nH]cc1F` .
Result: 0.000192

====

Conditions: in n-propanol, 318.15 K
MEASURE: solubility (mole fraction)
Numbers only.

Request: Specify measured solubility (mole fraction) for `Nc1nc(=O)[nH]cc1F` .
Result: 0.000792

====

Conditions: in acetonitrile, 308.15 K
MEASURE: solubility (mole fraction)
Answers are plain numbers.

Request: Specify measured solubility (mole fraction) for `Nc1nc(=O)[nH]cc1F` .
Result: 2.84e-05

====

Conditions: in 1,4-dioxane, 298.15 K
MEASURE: solubility (mole fraction)
One number for each entry.

Request: Specify measured solubility (mole fraction) for `Nc1nc(=O)[nH]cc1F` .
Result: 2.37e-05
